B1: Haloalkane dehalogenase, D4Z2G1 (parent)
chain: MSLGAKPFGEKKFIEIKGRRMAYIDEGTGDPILFQHGNPTSSYLWRNIMPHCAGLGRLIACDLIGMGDSDKLDPSGPERYAYAEHRDYLDALWEALDLGDRVVLVVHDWGSALGFDWARRHRERVQGIAYMEAIAMPIEWADFPEQDRDLFQAFRSQAGEELVLQDNVFVEQVLPGLILRPLSEAEMAAYREPFLAAGEARRPTLSWPRQIPIAGTPADVVAIARDYAGWLSESPIPKLFINAEPGALTTGRMRDFCRTWPNQTEITVAGAHFIQEDSPDEIGAAIAAFVRRLRPA

Variants of: B1
details: Sphingobium indicum (strain DSM 16413 / CCM 7287 / MTCC 6362 / UT26 / NBRC 101211 / UT26S); pH 7.5; Thermal; fluorescence; Na-Hepes 50 mM; reversible: no; structure 1MJ5; whole UniProt chain shown
Binary classification by Tm, with 50 °C as an inclusive lower bound for satisfied; all other cases are not satisfied.

Would you please look over these solved cases?
{"variantName": "A81E", "groupLabel": "not satisfied"}
{"variantName": "G229Q", "groupLabel": "satisfied"}
{"variantName": "D147L", "groupLabel": "satisfied"}
{"variantName": "A153K", "groupLabel": "satisfied"}
{"variantName": "G229S", "groupLabel": "satisfied"}

**Q:** Assess whether reported Tm for E192R sits at 50 °C or higher.
**A:** satisfied

**Q:** Note, next up: D149K
**A:** satisfied

**Q:** Note, next up: S42C A60C
**A:** not satisfied

**Q:** Note, next up: Q152L
**A:** satisfied

**Q:** Note, next up: D149Q
**A:** satisfied
